- experimental-details: Thermodynamic (equilibrium) solubility assay
- Type: physicochemical
- condition-details: aqueous buffer, thermodynamic from solid; 50 mM pH 7.4 phosphate buffer, 24 hours at room temperature
metric-name: solubility thermodynamic at 24 h

| molecule | data-value |
| --- | --- |
| Cn1cc(N(C[C@@H]2CCCO2)S(=O)(=O)NC(=O)Nc2c3c(cc4c2CCC4)CCC3)cn1 | 3000 to 10000 µg/mL |
| Cn1cc(N(CCC2CCCO2)S(=O)(=O)NC(=O)Nc2c3c(cc4c2CCC4)CCC3)cn1 (stereo not shown) | 3000 to 10000 µg/mL |
| Cn1cc(N(CC2CCCCO2)S(=O)(=O)NC(=O)Nc2c3c(cc4c2CCC4)CCC3)cn1 (stereo not shown) | 3000 to 10000 µg/mL |
| Cn1cc(N(CC2CCCCO2)S(=O)(=O)NC(=O)Nc2c3c(cc4c2CC4)CC3)cn1 (stereo in doubt) [Compound 7A] | 3000 to 10000 µg/mL |
| Cn1cc(N(C[C@H]2CCCO2)S(=O)(=O)NC(=O)Nc2c3c(cc4c2CCC4)CCC3)cn1 | 1000 to 3000 µg/mL |
| Cn1cc(N(CC2CCCCO2)S(=O)(=O)NC(=O)Nc2c3c(cc4c2CC4)CC3)cn1 (stereo in doubt) [Compound 7B] | 3000 to 10000 µg/mL |
| Cn1cc(N(CC2CCOC2)S(=O)(=O)NC(=O)Nc2c3c(cc4c2CCC4)CCC3)cn1 (stereo not shown) | 1000 to 3000 µg/mL |
